Read-out: Vascular endothelial growth factor receptor 2 (Homo sapiens) (UniProt P35968)
Assay: BSK_4H_VEGFRII: BioMAP Diversity Plus: 4H Assay for Vascular endothelial growth factor receptor 2 (VEGFR2) Biomarker Activity (AID 2283031)
Settings: primary human endothelial cells (HUVEC); actives raise or lower the signal
Calls of active or inactive are those of the source. The calls were made as follows: active = hit-call score of the fitted dose curve at least 0.9, where 1 is the maximum; inactive = score below 0.9.
Outcomes: true = active, false = inactive

| compound | labelClass |
| --- | --- |
| CC(=O)C1(C)CC2=C(CCCC2(C)C)CC1C (configuration not stated) | true |
| O=CN1CCOCC1 | false |
| Clc1cc(Cl)c(-c2c(Cl)c(Cl)cc(Cl)c2Cl)cc1Cl | true |
| C[C@@H]1CCN(C(=O)[C@H](CCCN=C(N)N)NS(=O)(=O)c2cccc3c2NC[C@H](C)C3)[C@@H](C(=O)O)C1 | false |
| COc1ccc(CCN2CCC(Nc3nc4ccccc4n3Cc3ccc(F)cc3)CC2)cc1 | false |
| CC(C)(N=C=O)c1cccc(C(C)(C)N=C=O)c1 | false |
| c1ccc2cc(Nc3ccc(Nc4ccc5ccccc5c4)cc3)ccc2c1 | false |
| CCN(CC)C(=O)N(CC)CC | false |
| CC(CN=Cc1ccccc1O)N=Cc1ccccc1O (configuration not stated) | false |
| c1ccc(Oc2ccccc2)cc1 | false |
| C=C(C)C(=O)OCC(CC)(COC(=O)C(=C)C)COC(=O)C(=C)C | false |
| CCC(C)c1cc([N+](=O)[O-])cc([N+](=O)[O-])c1OC(=O)OC(C)C (configuration not stated) | true |
| C=C(C)[C@H]1CC=C(C)C(=O)C1 | false |
| CC1(C)C2=CCCC(C)(C)[C@]23CC[C@H]1C3 | false |
| CN(C)C(=S)SC(=S)N(C)C | false |
| CS(=O)(=O)c1ccc(C2=C(c3ccccc3)C(=O)OC2)cc1 | false |
| C=C(C)C(=O)OCCOCCOCCOCCOC(=O)C(=C)C | false |
| COc1cc(Cl)c(OC)cc1N | false |
| CCCCOC(=O)CCCCCCCC(=O)OCCCC | false |
| O=C1c2ccccc2C(=O)c2c(O)ccc(O)c21 | false |
| CC(=O)c1c(C)c([N+](=O)[O-])c(C(C)(C)C)c([N+](=O)[O-])c1C | false |
| CN(C)C(=O)Nc1ccc(Oc2ccc(Cl)cc2)cc1 | false |
| C=C(C)C(=O)OCCOCCOCCOC(=O)C(=C)C | false |
| CN(c1nccc(=O)[nH]1)C1CCN(c2nc3ccccc3n2Cc2ccc(F)cc2)CC1 | false |
| O=C(Nc1ccc2c(O)c(N=Nc3ccc(N=Nc4ccc(S(=O)(=O)O)cc4)cc3)c(S(=O)(=O)O)cc2c1)c1ccccc1 | false |
| C=CC(C)(O)CCC=C(C)C (configuration not stated) | false |
| CCCCCCC(CO)CCCC (configuration not stated) | false |
